tested-system: Human CB2 receptors (Homo sapiens, UniProt P34972)
Sequence (P34972 whole entry): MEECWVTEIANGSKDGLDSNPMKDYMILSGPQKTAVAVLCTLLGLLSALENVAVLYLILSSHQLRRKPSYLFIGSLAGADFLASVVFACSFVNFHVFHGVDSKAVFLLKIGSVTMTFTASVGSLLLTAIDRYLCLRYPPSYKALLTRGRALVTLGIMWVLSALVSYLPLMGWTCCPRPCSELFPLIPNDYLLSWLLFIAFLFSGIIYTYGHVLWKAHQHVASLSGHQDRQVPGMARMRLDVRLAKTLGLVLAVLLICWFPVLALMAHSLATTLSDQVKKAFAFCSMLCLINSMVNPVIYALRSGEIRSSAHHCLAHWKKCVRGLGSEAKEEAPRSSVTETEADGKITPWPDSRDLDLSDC
protocol-notes: In vitro signaling assay: inhibition of forskolin-induced cAMP production in human CB2 receptor expressing CHO cells
particulars: 10 μM forskolin, 15 minutes at room temperature
quantity-measured: pIC50
In simple prose, pIC50 is minus the logarithm base ten of a concentration in moles per litre.

Answered cases to consult:
{"compound-string": "Cc1cc2c(cc1O)/C(=C/C(=O)C1CCCCCC1)NC(C)(C)C2", "val": 8.39}
{"compound-string": "CC1(C)Cc2cc(C#N)c(C#N)cc2/C(=C/C(=O)C2CCOCC2)N1", "val": 8.28}
{"compound-string": "COc1ccc2c(c1)C(C)(C)N/C2=C\\C(=O)c1ccccc1OC", "val": 8.48}

Field: next molecule
Respond only with pIC50 recorded for "Cc1cc2c(cc1O)/C(=C/C(=O)C13CC4CC(CC(C4)C1)C3)NC(C)(C)C2"
8.28
